meta.source: PubChem BioAssay

- assayed-target: Luciferin 4-monooxygenase (Photinus pyralis)
- measurement-description: inhibition of purified Photinus pyralis luciferase – biochemical, luminescence, purified enzyme, 2006 set, primary screen (AID 1141);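 further: cell-free assay with purified firefly luciferase at 100 ng per well in PBS; test concentration not given here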
- test-settings: purified firefly luciferase, SteadyGlo luminescence, 30 min; higher = more signal, called active from +8 up or from −8 down
Please respond with reported z-score for every item in the list.
Respond with the number and no other words.

Item under review: "O=C(O)[C@@H]1[C@@H]2C(=O)N(c3ccccc3)C(=O)[C@@H]2C[C@@H]1Sc1ccccc1" . Reported z-score?
1.35

Requested read-out: z-score. Entry: "COc1ccc(CCNC(=O)[C@@H]2c3ccccc3C(=O)N(C3CCCCC3)[C@H]2c2ccc(CO)cc2)cc1"
-0.323

# query: z-score of entry "CCCC=C(CCC)[C@@H](NP(=O)(c1ccccc1)c1ccccc1)c1ccc(-c2ccccc2)cc1"
2.64

Consider the molecule shown here: "COCCOC(=O)N1C(=O)[C@@]2(c3cc(C#CCCO)ccc31)[C@H](C(=O)Nc1nc3ccccc3s1)[C@H]1C(=O)O[C@H](c3ccccc3)[C@H](c3ccccc3)N1[C@@H]2c1ccc(O)cc1" What is its recorded z-score?
0.57

---

- assayed-target: Torsin-1A-interacting protein 1 (Homo sapiens)
- measurement-description: compound microarray binding of lysate hLAP1 – cell lysate, small-molecule microarray, COS7 lysate, 635/667 nm fluorescence, primary screen (AID 1116)
- test-settings: 635 nm fluorescence, higher = more signal
Hi there, I'd appreciate the recorded composite z-score for every entry that follows.
Reply briefly: the number, and no unit.

Form field: reported composite z-score of CCN(CC)c1ccc(N2CC=CC34O[C@@H]5/C=C\CCCOC(=O)C5[C@H]3C(=O)N(C(C)CO)[C@@H]4C2=O)cc1 (stereo partly drawn)
-0.421

For "COC(=O)[C@@]1(Cc2ccc(F)cc2)[C@H]2c3cc(C(=O)N(C)C)n(CCc4ccc(OC)c(Br)c4)c3C[C@H]2CN1C(=O)c1ccccc1" , what is its reported composite z-score?
0.589

Name the reported composite z-score value associated with the molecule "COCCOC(=O)N1C(=O)[C@@]2(c3ccccc31)[C@H](c1ccc(O)cc1)N1[C@H](c3ccccc3)[C@H](c3ccccc3)OC(=O)[C@H]1[C@@H]2C(=O)N1CCN(c2ncccn2)CC1"
0.675

---

- assayed-target: Left-right determination factor 2 (Homo sapiens)
- measurement-description: small molecules binding LEFTY2 protein – biochemical, small-molecule microarray, 635 nm fluorescence scan, primary screen (AID 1110)
- test-settings: higher = more signal
recorded-metric: composite z-score
Reply with just the number.

// lookup composite z-score | system=Left-right determination factor 2 (Homo sapiens) | key= CCCCCN1CC=CC23O[C@@H]4/C=C\CCCOC(=O)C4[C@H]2C(=O)N(C(C)CO)[C@@H]3C1=O (some centres not stated)
-1.67

Value wanted: composite z-score (Left-right determination factor 2 (Homo sapiens)) of entry "COCCOC(=O)N1C(=O)[C@@]2(c3cc(C#CCCO)ccc31)[C@H](c1ccc(OCCO)cc1)N1[C@H](c3ccccc3)[C@H](c3ccccc3)OC(=O)[C@H]1[C@@H]2C(=O)Nc1nc2ccccc2s1"
0.95

Short answer please: composite z-score, Left-right determination factor 2 (Homo sapiens), entry CN1C2C=C(CCCO)C(C3C(=O)N(C(N)=O)C(=O)C32)C1C1CC1 (configuration not stated)
-0.645

Enter reported composite z-score observed with Left-right determination factor 2 (Homo sapiens) for "Cc1ccc(S[C@]2(C(=O)O)CC(=O)N(C3CCCCC3)[C@@H]2c2ccc(CO)cc2I)cc1"
-0.326

Provide the documented composite z-score with Left-right determination factor 2 (Homo sapiens) as the system for "CCOC(=O)C1=C[C@@H](c2ccccc2)N(S(=O)(=O)c2ccc(C)cc2)[C@H]1c1ccc(OC)cc1"
0.976

Give Left-right determination factor 2 (Homo sapiens) composite z-score for "Cc1ccc(S[C@]2(C(=O)NC(C)C)CC(=O)N(Cc3cc(C(F)(F)F)cc(C(F)(F)F)c3)[C@@H]2c2ccc(CO)cc2)cc1"
-1.76

Test system Left-right determination factor 2 (Homo sapiens); read-out composite z-score; what value for C=CCC(OC(C)=O)[C@@H]1[C@@H](N(Cc2ccc(-c3cccc(C(F)(F)F)c3)o2)C(=O)c2ccc(-c3ccccc3)cc2)c2cc(OCCCO)ccc2N1C(=O)Cc1ccc2ccccc2c1 (some centres not stated) ?
-0.458
